Subject Of Test: T1, human AMHRII (anti-Mullerian hormone receptor type 2) (human, UniProt Q16671 18-573)
T1 construct: whole, on cells; also called AMHR2; human AMHR2
T1 sequence (looked up): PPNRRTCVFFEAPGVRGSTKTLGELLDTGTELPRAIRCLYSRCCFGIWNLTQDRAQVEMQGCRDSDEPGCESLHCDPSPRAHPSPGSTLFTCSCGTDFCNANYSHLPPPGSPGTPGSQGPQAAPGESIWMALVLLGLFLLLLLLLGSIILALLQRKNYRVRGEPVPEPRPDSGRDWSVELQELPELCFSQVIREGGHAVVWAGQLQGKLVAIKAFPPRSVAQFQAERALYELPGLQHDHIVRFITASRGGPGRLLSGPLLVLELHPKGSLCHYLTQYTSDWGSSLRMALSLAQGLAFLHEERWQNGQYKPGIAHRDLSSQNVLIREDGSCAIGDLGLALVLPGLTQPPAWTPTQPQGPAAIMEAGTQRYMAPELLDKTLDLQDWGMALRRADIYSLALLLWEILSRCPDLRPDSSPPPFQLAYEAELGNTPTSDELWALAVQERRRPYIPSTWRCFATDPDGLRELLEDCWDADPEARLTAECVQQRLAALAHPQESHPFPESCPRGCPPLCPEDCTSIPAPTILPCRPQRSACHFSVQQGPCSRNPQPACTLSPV
Method Summary: FACS on CHO-K1 cells over-expressing human AMHR2
Recorded Top (MFI) values for a group of binders are listed next.
Answer with the value and then the unit.

Example cases with answers are listed next.
94C4C3 H3L3 hIgG1 (antibody, V domains shown, Humanized, human IgG1; also called 94C4C3 H3L3 hlgG1) VH: QVQLQESGPGLVKPSETLSLTCTVSGYSITSDYAWNWIRQFPGKGLEWMGYISYSGSISYNPSLKSRITISRDTSKNQFFLKLSSVTAADTAVYYCARSRYSWFDYWGQGTLVTVSS VL: EIVLTQSPGTLSLSPGERATLSCSASESVDTYGNSFMHWYQQKPGQPPRLLIYRASSLESGIPVRFSGSGSRTDFTLTISRVEAEDFAVYYCQQSNEDPYTFGGGTKLEIK	46300 MFI
94C4C3 H4L3 hIgG1 (antibody, V domains shown, Humanized, human IgG1; also called 94C4C3 H4L3 hlgG1) VH: QVQLQESGPGLVKPSETLSLTCTVTGYSITSDYAWNWIRQFPGKKLEWMGYISYSGSISYNPSLKSRITISRDTSKNQFFLQLSSVTAADTAVYYCARSRYSWFDYWGQGTLVTVSS VL: EIVLTQSPGTLSLSPGERATLSCSASESVDTYGNSFMHWYQQKPGQPPRLLIYRASSLESGIPVRFSGSGSRTDFTLTISRVEAEDFAVYYCQQSNEDPYTFGGGTKLEIK	51100 MFI

# input for lookup
[Q] Which measured Top (MFI) value corresponds to 94C4C3 H3L4 hIgG1 (antibody, V domains shown, Humanized, human IgG1; also called 94C4C3 H3L4 hlgG1) VH: QVQLQESGPGLVKPSETLSLTCTVSGYSITSDYAWNWIRQFPGKGLEWMGYISYSGSISYNPSLKSRITISRDTSKNQFFLKLSSVTAADTAVYYCARSRYSWFDYWGQGTLVTVSS VL: DIVLTQSPGTLSVSPGERATLSCSASESVDTYGNSFMHWYQQKPGQPPKLLIYRASSLESGIPVRFSGSGSRTDFTLTISRVEAEDFAVYYCQQSNEDPYTFGGGTKLEIK ?
[A] 48100 MFI
